Tested on: HSC2
Experiment notes: relative IC50 (inflection point of fitted dose-response curve, CellTiter-Glo viability, 72 h; top asymptote may be below 50% inhibition); higher = less potent
Label rule, in plain words: relative IC50 of 80 nM and up is True, under 80 nM is False.

Compound	Label value
CNCc1ccc(-c2[nH]c3cc(F)cc4c3c2CCNC4=O)cc1	True

Inquiry: Check the entry CC(C)C[C@@H](C(=O)N[C@H](C(=O)OC1CCCC1)c1ccccc1)[C@H](O)C(=O)NO : does relative IC50 equal or exceed 80 nM?
Reply text: False

====

Tested on: HS-Sch-2
Experiment notes: relative IC50 (inflection point of fitted dose-response curve, CellTiter-Glo viability, 72 h; top asymptote may be below 50% inhibition); higher = less potent
I'd be grateful if you could share measured relative IC50 for these entries.

Worked set:
Compound	relative IC50
COc1cc2c(Oc3ccc4[nH]c(C)cc4c3F)ncnc2cc1OCCCN1CCCC1 [Cediranib]	> 1000 nM
CCCNC(=O)Nc1ccc(Oc2ncnc3cc(OC)c(OC)cc23)cc1Cl [KRN-633]	> 2500 nM
CCN1CCN(Cc2ccc(-c3cc4c(N[C@H](C)c5ccccc5)ncnc4[nH]3)cc2)CC1 [NVP-AEE788]	> 2500 nM

Quick request: relative IC50 for each listed item, please.
1. Cc1cc(Nc2nc(N[C@@H](C)c3ncc(F)cn3)ncc2Cl)[nH]n1 [AZD1480]
2. Oc1ncnc2[nH]ncc12 [Allopurinol]
3. COc1cccc2cc(-c3nc([C@H]4CC[C@H](C(=O)O)CC4)n4ncnc(N)c34)[nH]c12 [OSI-027]
4. CCNC(=O)Nc1ccc(-c2nc3c(c(N4CCOC[C@@H]4C)n2)CCN(C2COC2)C3)cc1 [RG-7603]
5. CO[C@H]1/C=C\C=C(/C)C(=O)NC2=CC(=O)C(NCCN(C)C)=C(C[C@@H](C)C[C@H](OC)[C@H](O)[C@@H](C)/C=C(\C)[C@@H]1OC(N)=O)C2=O [Alvespimycin]
6. COc1ccc(C2=N[C@@H](c3ccc(Cl)cc3)[C@@H](c3ccc(Cl)cc3)N2C(=O)N2CCNC(=O)C2)c(OC(C)C)c1 [Nutlin-3]

Reply text:
["> 1000 nM", "> 10000 nM", "3470 nM", "356 nM", "47.3 nM", "> 10000 nM"]
